Source: ChEMBL document CHEMBL1201862

Tested on: SNB-78
Assay: NCI tumour cell line growth inhibition, 48 h
Active and inactive are the calls of the source. Cut-off read from the data, not from the text of the source: active = GI50 up to about 1.1 µM and inactive = higher.
What GI50 was measured for each of the following?

{"Compound": "CC/C(CC(=O)CCC(=O)Nc1ccc(C)c(C)c1)=N\\NC(=O)c1cc2ccccc2cc1O", "Recorded Metric": "GI50", "Recorded Value": "48.5 µM (inactive)"}
{"Compound": "CC[C@@]1(OC(=O)C(N)CCC(=O)O)C(=O)OCc2c1cc1n(c2=O)Cc2cc3ccccc3nc2-1 (some centres not stated)", "Recorded Metric": "GI50", "Recorded Value": "1.82 µM (inactive)"}
{"Compound": "COc1ccc(NC(=O)/C(=C/c2ccc(N(CCC#N)CCC#N)cc2)NC(=O)c2cc([N+](=O)[O-])ccc2Cl)cc1", "Recorded Metric": "GI50", "Recorded Value": "> 100 µM (inactive)"}
{"Compound": "N#CC1(Cc2ccccc2[N+](=O)[O-])c2ccccc2C2C(N1C(=O)c1ccccc1)C2(Cl)Cl (configuration not stated)", "Recorded Metric": "GI50", "Recorded Value": "77.3 µM (inactive)"}
{"Compound": "O=[N+]([O-])c1ccc(CNC2=NNS(=O)(=O)c3ccccc32)cc1", "Recorded Metric": "GI50", "Recorded Value": "> 100 µM (inactive)"}
{"Compound": "c1ccc2c(c1)[nH]c1c2nc2ccccn21", "Recorded Metric": "GI50", "Recorded Value": "> 100 µM (inactive)"}

Hey, can you go through the list below and give me GI50 for every item?
1. COc1cc([C@H]2Oc3c(c(O)cc4oc(-c5ccccc5)cc(=O)c34)O[C@@H]2CO)ccc1O
2. CN(C)/C=C/C(=CC=[N+](C)C)/C=C/N(C)C.[O-][Cl+3]([O-])([O-])[O-]
3. N#CC(C(=O)/C(=N/NC(=O)c1ccccc1O)C(C#N)c1ccccc1)c1ccccc1 (configuration not stated)
4. Cc1ccccc1NC(=O)c1ccc([N+](=O)[O-])cc1
5. COC(=N)C(C)C
6. CCc1ccccc1NC(=O)/C(=N/O)C(C)=O

Response:
> 100 µM (inactive)
> 100 µM (inactive)
> 100 µM (inactive)
> 100 µM (inactive)
> 100 µM (inactive)
> 100 µM (inactive)

###

System: HOP-18
Assay: NCI tumour cell line growth inhibition, 48 h
Active and inactive are the calls of the source. Cut-off read from the data, not from the text of the source: active = GI50 up to about 1.1 µM and inactive = higher.
What GI50 was measured for each of the following?

Please review the entries below; each comes with its answer.
{"Compound": "COc1ccc(NC(=O)/C(=C/c2ccc(N(CCC#N)CCC#N)cc2)NC(=O)c2cc([N+](=O)[O-])ccc2Cl)cc1", "Recorded Value": "> 100 µM (inactive)"}
{"Compound": "O=S1(=O)CCC2=CC(C(F)(F)F)=CC(C(F)(F)F)=CN21", "Recorded Value": "3.35 µM (inactive)"}
{"Compound": "CC1CCCP(=O)(c2ccccc2)CCC1 (stereo not given)", "Recorded Value": "69 µM (inactive)"}
{"Compound": "CCc1ccccc1NC(=O)/C(=N/O)C(C)=O", "Recorded Value": "> 100 µM (inactive)"}

Request: For the compound COc1cc2c(cn1)[nH]c1ccccc12 , what GI50 is on record?
Response: > 100 µM (inactive)

###

Tested on: ACHN
Assay: NCI tumour cell line growth inhibition, 48 h
Active and inactive are the calls of the source. Rule as the data show it: active = GI50 up to about 1.1 µM and inactive = higher.
A correct response names exactly one class from active, inactive

Request: Please share the test call associated with NCCCCCCn1c(-c2ccc(Br)cc2)cs/c1=N\c1ccccc1 .
Response: inactive

Request: Please share the test call associated with C=CCN1C(=O)/C(=C/c2ccccc2)N=C1SC1OC(COC(=O)c2ccccc2)C(OC(=O)c2ccccc2)C1OC(=O)c1ccccc1 (stereo not given) .
Response: inactive

Request: Please share the test call associated with CSC(=Nc1nnc(-c2ccc([N+](=O)[O-])cc2)s1)SC .
Response: inactive

Request: Please share the test call associated with Nc1cc(S(N)(=O)=O)ccc1SSc1ccc(S(N)(=O)=O)cc1N .
Response: inactive

###

What GI50 was measured for each of the following?
System: TK-10
Test: NCI tumour cell line growth inhibition, 48 h
Active and inactive are the calls of the source. Cut-off read from the data, not from the text of the source: active = GI50 up to about 1.1 µM and inactive = higher.

{"Compound": "CC1(C)O[C@H](C(=O)O)[C@@H](C(=O)O)O1", "Recorded Value": "> 100 µM (inactive)"}
{"Compound": "CC(=O)OCC1OC(n2c(C)c(C(C)=O)c(-c3ccco3)c(C#N)c2=S)C(OC(C)=O)C(OC(C)=O)C1OC(C)=O (stereo not given)", "Recorded Value": "> 100 µM (inactive)"}
{"Compound": "Clc1cccc2[nH]ncc12", "Recorded Value": "> 100 µM (inactive)"}

Hey, can you go through the list below and give me GI50 for every item?
1. NC(=S)N/N=C1/C(=O)N(c2ccc(Cl)cc2Cl)C(=O)C(=O)C1c1nc2ccccc2s1 (stereo not given)
2. CCCCCCCC(=O)OCC1OC(n2cc(F)c(=O)[nH]c2=O)C(NC(=O)OCc2ccccc2)C(O)C1O (stereo not given)
3. Cc1cc2[nH]c3[nH]c(=O)[nH]c(=O)c3c2cc1C

Response:
["> 100 µM (inactive)", "> 100 µM (inactive)", "> 100 µM (inactive)"]

Hey, can you go through the list below and give me GI50 for every item?
1. O=C(Oc1ccccn1)c1cc2cc(CCl)ccc2oc1=O
2. CCN(CC)c1ccc2cc(-c3csc(-c4ccc(N(C)C)cc4)n3)c(=O)oc2c1
3. O=C1C=CC2(O[C@H](c3ccccc3)[C@@H](c3ccccc3)O2)[C@H](Sc2ccccc2O)C1
4. O=C1NC(=O)C2C1c1[nH]c3ccccc3c1C1CCCC12 (stereo not given)

Response:
["72.1 µM (inactive)", "> 100 µM (inactive)", "0.29 µM (active)", "8.75 µM (inactive)"]

###

System: HT-29
Experiment: NCI tumour cell line growth inhibition, 48 h
The source made the active and inactive calls. No stated cut-off is given here; in the data, active = GI50 up to about 1.1 µM and inactive = higher. Where a SMILES comes first, the peptide text is derived from it.
A correct response names exactly one class from active, inactive

A selection of reference data follows.
{"Molecule": "Cc1cc2nc(C=C(C(F)(F)F)C(F)(F)F)oc2cc1C", "Classification": "inactive"}
{"Molecule": "CC1(C)C(=O)N(O)C(C)(C)N1O", "Classification": "inactive"}
{"Molecule": "[N-]=[N+]=C1C(=O)C2CC3CC1CC2C3 (centres undefined)", "Classification": "inactive"}
{"Molecule": "COc1ccc(C(=O)NCCN(C)C)c2nc3ccccc3cc12", "Classification": "active"}
{"Molecule": "NC(=S)N/N=C/C(=C/Nc1ccccc1)[N+](=O)[O-]", "Classification": "inactive"}
{"Molecule": "NC(=O)C(c1ccccc1)N1CCOCC1 (centres undefined)", "Classification": "inactive"}

// next entry
Request: Please share the test call associated with CC(C)CC(NC(=O)C(Cc1ccccc1)NC(=O)C(Cc1c[nH]c2ccccc12)NC(=O)CNC(=O)C(N)Cc1ccc(O)cc1)C(=O)O (centres undefined) (H-YGWFL-OH; configuration not given here) .
Response: inactive

###

Tested on: MOLT-4
Experiment: NCI tumour cell line growth inhibition, 48 h
Activity calls are given as the source filed them. Rule as the data show it: active = GI50 up to about 1.1 µM and inactive = higher. Where a SMILES comes first, the peptide text is derived from it.
What GI50 was measured for each of the following?

Please review the entries below; each comes with its answer.
{"Molecule": "CC(C)CC(NC(=O)C(Cc1ccccc1)NC(=O)C(Cc1c[nH]c2ccccc12)NC(=O)CNC(=O)C(N)Cc1ccc(O)cc1)C(=O)O (stereo unspecified) (H-YGWFL-OH; configuration not given here)", "Recorded Value": "59.7 µM (inactive)"}
{"Molecule": "Oc1ccc(/C=C\\c2nnc(/C=C\\c3ccc(O)c(O)c3)s2)cc1O", "Recorded Value": "1.08 µM (active)"}

Hey, can you go through the list below and give me GI50 for every item?
1. c1cc2ccc3cc4ncccc4c4ccc(c1)c2c34
2. O=C1C=CC2(O[C@H](c3ccccc3)[C@@H](c3ccccc3)O2)[C@H](Sc2ccccc2O)C1
3. Cc1cc(S(=O)(=O)Nc2nc(N)n[nH]2)c(SCC(=O)O)cc1Cl

Response:
8.59 µM (inactive)
0.0286 µM (active)
> 10 µM (inactive)

###

What GI50 was measured for each of the following?
Tested on: T47D
Assay: NCI tumour cell line growth inhibition, 48 h
Calls of active or inactive are those of the source. No stated cut-off is given here; in the data, active = GI50 up to about 1.1 µM and inactive = higher.

Please review the entries below; each comes with its answer.
{"Structure Smiles String": "O=c1c2cc3c(=O)n4c(cc(-c5ccccc5)c5cc(Cl)ccc54)nc3cc2nc2cc(-c3ccccc3)c3cc(Cl)ccc3n12", "Recorded Metric": "GI50", "Recorded Value": "> 100 µM (inactive)"}
{"Structure Smiles String": "O=C1C=CC(=O)N1c1ccc(I)cc1", "Recorded Metric": "GI50", "Recorded Value": "25.6 µM (inactive)"}
{"Structure Smiles String": "O=Nc1c(-c2cccc([N+](=O)[O-])c2)nc2cnccn12", "Recorded Metric": "GI50", "Recorded Value": "15.1 µM (inactive)"}
{"Structure Smiles String": "O=C(Nc1cc2cc([N+](=O)[O-])ccc2oc1=O)c1cccs1", "Recorded Metric": "GI50", "Recorded Value": "38.5 µM (inactive)"}

Read the next record carefully.
Request: # get_value(readout= GI50, system= T47D) for CCOC(=O)c1c(C)n(C)c2c1cc(O)c1[nH]c3c(c12)CCCC3
Response: 18.2 µM (inactive)
